biological target: ROCK2 protein (Homo sapiens, UniProt O75116); test: Degradation inducing activity of ROCK2 protein in HUVEC cells, Western blotting (Simple Western JESS); assay type: cell-based; parameters: endogenous in cells; host or cells: HUVEC (ATCC CRL-1730); settings: HUVEC, 24 h, degradation rate at 10 µM
Sequence (O75116 whole entry): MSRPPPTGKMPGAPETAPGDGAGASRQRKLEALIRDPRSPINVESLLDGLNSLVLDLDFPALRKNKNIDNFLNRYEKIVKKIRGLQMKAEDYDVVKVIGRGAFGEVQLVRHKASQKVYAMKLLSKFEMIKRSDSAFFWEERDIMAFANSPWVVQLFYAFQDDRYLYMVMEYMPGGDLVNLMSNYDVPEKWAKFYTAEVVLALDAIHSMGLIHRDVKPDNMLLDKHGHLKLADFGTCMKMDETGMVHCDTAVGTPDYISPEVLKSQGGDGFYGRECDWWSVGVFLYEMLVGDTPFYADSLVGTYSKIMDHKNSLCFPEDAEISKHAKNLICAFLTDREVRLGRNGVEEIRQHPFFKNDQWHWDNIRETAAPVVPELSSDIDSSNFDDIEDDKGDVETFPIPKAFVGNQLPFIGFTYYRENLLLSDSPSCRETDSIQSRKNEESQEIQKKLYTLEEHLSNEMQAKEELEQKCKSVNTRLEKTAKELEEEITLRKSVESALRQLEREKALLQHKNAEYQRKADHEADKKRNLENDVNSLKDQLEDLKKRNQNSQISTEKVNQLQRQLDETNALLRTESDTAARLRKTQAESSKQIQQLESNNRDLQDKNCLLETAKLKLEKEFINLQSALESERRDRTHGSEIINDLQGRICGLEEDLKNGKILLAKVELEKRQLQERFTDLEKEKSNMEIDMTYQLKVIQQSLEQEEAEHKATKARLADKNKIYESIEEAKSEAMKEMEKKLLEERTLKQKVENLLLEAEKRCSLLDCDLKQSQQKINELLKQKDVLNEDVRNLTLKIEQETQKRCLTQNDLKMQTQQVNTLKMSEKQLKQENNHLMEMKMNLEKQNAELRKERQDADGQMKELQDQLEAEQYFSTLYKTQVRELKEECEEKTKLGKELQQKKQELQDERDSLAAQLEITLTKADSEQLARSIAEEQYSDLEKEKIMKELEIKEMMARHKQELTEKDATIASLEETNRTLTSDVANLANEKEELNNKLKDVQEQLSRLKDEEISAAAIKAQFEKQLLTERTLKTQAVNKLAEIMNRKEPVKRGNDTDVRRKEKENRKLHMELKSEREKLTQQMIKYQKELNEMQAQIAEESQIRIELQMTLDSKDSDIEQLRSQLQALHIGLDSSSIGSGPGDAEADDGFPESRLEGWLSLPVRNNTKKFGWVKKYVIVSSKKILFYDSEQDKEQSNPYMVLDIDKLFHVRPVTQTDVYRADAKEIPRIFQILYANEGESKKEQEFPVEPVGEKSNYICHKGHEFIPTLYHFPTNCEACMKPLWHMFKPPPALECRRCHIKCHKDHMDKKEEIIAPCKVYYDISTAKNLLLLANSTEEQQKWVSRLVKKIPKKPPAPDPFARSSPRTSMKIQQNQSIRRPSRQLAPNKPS

MOLECULE: COC[C@H]1CN[C@H](C)CN1CC(=O)N1CC(C)(C)c2ncc(Cc3cccc(OCCOCCOCCOCCN[C@H](C)c4ccc(C(=O)Nc5ccncc5)cc4)c3)cc21 [Example 45]
inhibition at 10 µM: 50 to 75%

MOLECULE: COC[C@H]1CN[C@H](C)CN1CC(=O)N1CC(C)(C)c2ncc(Cc3ccccc3OCCOCCN[C@H](C)c3ccc(C(=O)Nc4ccncc4)cc3)cc21 [Example 64]
inhibition at 10 µM: 50 to 75%

MOLECULE: COC[C@H]1CN[C@H](C)CN1CC(=O)N1CC(C)(C)c2ncc(Cc3cccc(OCCOCCOCCN[C@H](Cc4cccc(F)c4)C(=O)Nc4ccc(-c5ccncc5)cc4)c3)cc21 [Example 51]
inhibition at 10 µM: ≥ 75%

MOLECULE: COC[C@H]1CN[C@H](C)CN1CC(=O)N1CC(C)(C)c2nc(CN(C)CCOCCOCCN[C@H](Cc3cccc(F)c3)C(=O)Nc3ccc(-c4ccncc4)cc3)c(Cc3ccc(F)cc3)cc21 [Example 30]
inhibition at 10 µM: < 25%

MOLECULE: COC[C@H]1CN[C@H](C)CN1CC(=O)N1CC(C)(C)c2ncc(Cc3ccccc3OCCOCCNC[C@@H](C(=O)Nc3ccc4cnccc4c3)c3ccccc3)cc21 [Example 78]
inhibition at 10 µM: ≥ 75%

---

target: ROCK2 protein (Homo sapiens); assay: Degradation inducing activity of ROCK2 protein in HUVEC cells, Western blotting (Simple Western JESS); assay type: cell-based; parameters: endogenous in cells; host or cells: HUVEC (ATCC CRL-1730); details: HUVEC, 24 h, degradation rate at 1 µM

COMPOUND: COC[C@H]1CN[C@H](C)CN1CC(=O)N1CC(C)(C)c2nc(CN(C)CCOCCOCCOCCN[C@H](C)c3ccc(C(=O)Nc4ccncc4)cc3)c(Cc3ccc(F)cc3)cc21 [Example 24]
EXPERIMENTAL TARGET: ROCK2 protein (Homo sapiens)
inhibition at 1 µM: ≥ 75%

COMPOUND: COC[C@H]1CN[C@H](C)CN1CC(=O)N1CC(C)(C)c2nc(CN(C)CCOCCOCCOCCOCCOCCNC[C@@H](C(=O)Nc3ccc4cnccc4c3)c3ccccc3)c(Cc3ccc(F)cc3)cc21 [Example 40]
EXPERIMENTAL TARGET: ROCK2 protein (Homo sapiens)
inhibition at 1 µM: 25 to 50%

COMPOUND: C[C@@H]1CN(CC(=O)N2CC(C)(C)c3ncc(Cc4ccc(F)cc4)cc32)[C@@H](CN(C)CCOCCN[C@H](Cc2cccc(F)c2)C(=O)Nc2ccc(-c3ccncc3)cc2)CN1 [Example 8]
EXPERIMENTAL TARGET: ROCK2 protein (Homo sapiens)
inhibition at 1 µM: 25 to 50%

COMPOUND: COC[C@H]1CN[C@H](C)CN1CC(=O)N1CC(C)(C)c2ncc(Cc3ccccc3OCCOCCOCCOCCNC[C@@H](C(=O)Nc3ccc4cnccc4c3)c3ccccc3)cc21 [Example 80]
EXPERIMENTAL TARGET: ROCK2 protein (Homo sapiens)
inhibition at 1 µM: 50 to 75%

COMPOUND: COC[C@H]1CN[C@H](C)CN1CC(=O)N1CC(C)(C)c2ncc(Cc3cccc(OCCOCCOCCN[C@H](Cc4cccc(F)c4)C(=O)Nc4ccc(-c5ccncc5)cc4)c3)cc21 [Example 51]
EXPERIMENTAL TARGET: ROCK2 protein (Homo sapiens)
inhibition at 1 µM: 50 to 75%

COMPOUND: C[C@@H]1CN(CC(=O)N2CC(C)(C)c3ncc(Cc4ccc(F)cc4)cc32)[C@@H](CN(C)CCOCCOCCOCCN[C@H](Cc2cccc(F)c2)C(=O)Nc2ccc(-c3ccncc3)cc2)CN1 [Example 10]
EXPERIMENTAL TARGET: ROCK2 protein (Homo sapiens)
inhibition at 1 µM: 25 to 50%

COMPOUND: C[C@@H]1CN(CC(=O)N2CC(C)(C)c3ncc(Cc4ccc(F)cc4)cc32)[C@@H](CN(C)CCOCCOCCOCCNC[C@@H](C(=O)Nc2ccc3cnccc3c2)c2ccccc2)CN1 [Example 17]
EXPERIMENTAL TARGET: ROCK2 protein (Homo sapiens)
inhibition at 1 µM: 25 to 50%

COMPOUND: C[C@@H]1CN(CC(=O)N2CC(C)(C)c3ncc(Cc4ccc(F)cc4)cc32)[C@@H](CN(C)CCOCCOCCOCCOCCNC[C@@H](C(=O)Nc2ccc3cnccc3c2)c2ccccc2)CN1 [Example 18]
EXPERIMENTAL TARGET: ROCK2 protein (Homo sapiens)
inhibition at 1 µM: ≥ 75%

COMPOUND: COC[C@H]1CN[C@H](C)CN1CC(=O)N1CC(C)(C)c2nc(CN(C)CCOCCOCCOCCOCCOCCOCCN[C@H](C)c3ccc(C(=O)Nc4ccncc4)cc3)c(Cc3ccc(F)cc3)cc21 [Example 27]
EXPERIMENTAL TARGET: ROCK2 protein (Homo sapiens)
inhibition at 1 µM: < 25%

COMPOUND: C[C@@H]1CN(CC(=O)N2CC(C)(C)c3ncc(Cc4ccc(F)cc4)cc32)[C@@H](CN(C)CCOCCOCCNC[C@@H](C(=O)Nc2ccc3cnccc3c2)c2ccccc2)CN1 [Example 16]
EXPERIMENTAL TARGET: ROCK2 protein (Homo sapiens)
inhibition at 1 µM: 25 to 50%

COMPOUND: COC[C@H]1CN[C@H](C)CN1CC(=O)N1CC(C)(C)c2nc(CN(C)CCOCCN[C@H](Cc3cccc(F)c3)C(=O)Nc3ccc(-c4ccncc4)cc3)c(Cc3ccc(F)cc3)cc21 [Example 29]
EXPERIMENTAL TARGET: ROCK2 protein (Homo sapiens)
inhibition at 1 µM: 50 to 75%

COMPOUND: COC[C@H]1CN[C@H](C)CN1CC(=O)N1CC(C)(C)c2nc(CN(C)CCOCCOCCOCCOCCOCCN[C@H](Cc3cccc(F)c3)C(=O)Nc3ccc(-c4ccncc4)cc3)c(Cc3ccc(F)cc3)cc21 [Example 33]
EXPERIMENTAL TARGET: ROCK2 protein (Homo sapiens)
inhibition at 1 µM: < 25%

COMPOUND: COC[C@H]1CN[C@H](C)CN1CC(=O)N1CC(C)(C)c2ncc(Cc3cccc(OCCOCCOCCOCCOCCOCCOCCOCCNC[C@@H](C(=O)Nc4ccc5cnccc5c4)c4ccccc4)c3)cc21 [Example 63]
EXPERIMENTAL TARGET: ROCK2 protein (Homo sapiens)
inhibition at 1 µM: < 25%

COMPOUND: C[C@@H]1CN(CC(=O)N2CC(C)(C)c3ncc(Cc4ccc(F)cc4)cc32)[C@@H](CN(C)CCOCCOCCOCCOCCN[C@H](C)c2ccc(C(=O)Nc3ccncc3)cc2)CN1 [Example 4]
EXPERIMENTAL TARGET: ROCK2 protein (Homo sapiens)
inhibition at 1 µM: ≥ 75%

COMPOUND: COC[C@H]1CN[C@H](C)CN1CC(=O)N1CC(C)(C)c2ncc(Cc3ccccc3OCCOCCOCCOCCOCCOCCOCCN[C@H](Cc3cccc(F)c3)C(=O)Nc3ccc(-c4ccncc4)cc3)cc21 [Example 76]
EXPERIMENTAL TARGET: ROCK2 protein (Homo sapiens)
inhibition at 1 µM: < 25%
